molecular target: rat protein farnesyltransferase (Rattus norvegicus, UniProt Q02293+Q04631); assay: Rat protein farnesyltransferase inhibition assay
Measurement Kind: IC50 (nM)
Give bare numbers, in nM.

Cc1c(Cl)cccc1-c1cc(=O)n(C)c2ccc(C(O)(c3ccc(Cl)cc3)c3cncn3C)cc12 (stereo not drawn) [Compound 20] | 796
CNC(c1ccc(Cl)cc1)(c1ccc2c(c1)c(-c1cccc(Cl)c1C)cc(=O)n2C)c1cncn1C (stereo not drawn) [Compound 23] | 957

Next up:
Look up IC50 of CCn1cncc1C(O)(c1ccc(Cl)cc1)c1ccc2c(c1)c(-c1cccc(Cl)c1)cc(=O)n2C (stereo not drawn) [Compound 27] and report it.
30

---

molecular target: rat protein farnesyltransferase (Rattus norvegicus, UniProt Q02293+Q04631); assay: Rat protein farnesyltransferase inhibition assay; assay type: biochemical; conditions: relative to compound 1
Exercise: for every item that follows, state its recorded fold reduction in potency/affinity for protein farnesyltransferase compared to 1.

COC(c1ccc(Cl)cc1)(c1ccc2c(c1)c(-c1cccc(Cl)c1)cc(=O)n2C)c1cncn1C (stereo not shown) | 100 fold

Hey, quick one: what's fold reduction in potency/affinity for protein farnesyltransferase compared to 1 for each of these?
1. CCn1cncc1C(OC)(c1ccc(Cl)cc1)c1ccc2c(c1)c(-c1cccc(Cl)c1)cc(=O)n2C (stereo not shown)
2. COC(c1ccc(Cl)cc1)(c1ccc2c(c1)c(-c1cc(C)cc(C)c1)cc(=O)n2C)c1cncn1C (stereo not shown)
3. COC(c1ccc(Cl)cc1)(c1ccc2c(c1)c(-c1ccccc1)cc(=O)n2C)c1cncn1C (stereo not shown)

~ 1,500 fold
~ 600 fold
~ 500 fold

---

molecular target: recombinant Tc-L14DM (lanosterol 14α-demethylase) (Trypanosoma cruzi, UniProt Q7Z1V1); assay: Binding to recombinant Tc-L14DM by difference optical spectroscopy
Sequence (Q7Z1V1 whole entry): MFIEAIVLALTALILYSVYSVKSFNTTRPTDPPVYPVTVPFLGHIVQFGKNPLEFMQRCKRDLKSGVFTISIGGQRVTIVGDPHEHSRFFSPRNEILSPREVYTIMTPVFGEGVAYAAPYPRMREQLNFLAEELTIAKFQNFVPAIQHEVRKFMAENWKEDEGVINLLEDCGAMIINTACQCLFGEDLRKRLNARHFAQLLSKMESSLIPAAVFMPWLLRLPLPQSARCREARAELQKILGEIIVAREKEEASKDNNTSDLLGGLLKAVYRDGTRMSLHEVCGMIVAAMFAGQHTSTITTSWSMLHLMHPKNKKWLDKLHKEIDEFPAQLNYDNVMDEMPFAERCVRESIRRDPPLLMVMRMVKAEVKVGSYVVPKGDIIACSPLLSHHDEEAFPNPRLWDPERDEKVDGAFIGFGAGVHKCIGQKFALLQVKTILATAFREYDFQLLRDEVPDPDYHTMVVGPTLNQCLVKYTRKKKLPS
pKd: −log10 of the molar value.
Measurement Kind: pKd

Look up pKd of COC(c1ccc(Cl)cc1)(c1ccc2c(c1)c(-c1c(F)cccc1F)cc(=O)n2C)c1cncn1C (stereo not shown) [Compound 16] and report it.
> 5.85
